// reported IC50 for each item listed
- tested.target: Kras and SOS1 (biotin-tagged human Kras loaded with GDP, His-tagged human SOS1) (Homo sapiens, UniProt P01116, G12D)
- Construct: made in house; host or cells: E. coli (stated for Kras only)
- Sequence (P01116 1-188 isoform P01116-2 G12D): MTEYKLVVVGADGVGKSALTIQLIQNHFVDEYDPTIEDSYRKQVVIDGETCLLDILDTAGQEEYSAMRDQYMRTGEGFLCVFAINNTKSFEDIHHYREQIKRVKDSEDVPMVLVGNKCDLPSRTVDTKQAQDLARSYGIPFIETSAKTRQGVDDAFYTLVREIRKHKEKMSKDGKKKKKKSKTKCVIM
- test.summary: Protein-protein interaction inhibition between Kras and SOS1 (KrasGl2D-SOS PPI) using AlphaScreen
- Format: binding
- condition: AlphaScreen; biotin-tagged human Kras loaded with GDP, His-tagged human SOS1; read-out: KRAS G12D-SOS PPI IC50
- Procedure: Protein-Protein Interaction Inhibition Between Kras and SOS1 (KrasGl2D-SOS PPI) Using AlphaScreen Protein-protein interaction inhibition (PPI) between Kras and SOS1 was measured by energy transfer from nickel-conjugated donor beads to streptavidin-conjugated acceptor beads using biotin-tagged human Kras expressed in E. coli and loaded with GDP after purification and His-tagged human SOS1 enzyme. […]
Starred links: 1 amine or outer side, 2 acyl side, 3 side chain; linkers in the order of their positions; H or OH if unused. Positions of bridges follow the written chain, without caps; N, C: chain ends. Non-standard residues stand in square brackets, D forms with d. Residues, ends and D or L forms follow the SMILES beside them. *: point of attachment. hPhe(3-Cl-4-CF3) = N[C@@H](CCc1ccc(C(F)(F)F)c(Cl)c1)C(=O)O; hPhe(3-F,4-CF3) = N[C@@H](CCc1ccc(C(F)(F)F)c(F)c1)C(=O)O; X12 = CN([C@@H](Cc1ccc(C(F)(F)F)nc1)C(=O)[*:2])[*:1]; NMePhe(4-Cl) = CN[C@@H](Cc1ccc(Cl)cc1)C(=O)O; NMePhe(4-Me) = CN[C@@H](Cc1ccc(C)cc1)C(=O)O; X11 = CN([C@@H](CCc1cccnc1)C(=O)[*:2])[*:1]; NMeGly(cPent) = CN[C@H](C(=O)O)C1CCCC1; NMeCha = CN[C@@H](CC1CCCCC1)C(=O)O; NMeChg = CN[C@H](C(=O)O)C1CCCCC1; NMeF = CN[C@@H](Cc1ccccc1)C(=O)O; NMeI = CC[C@H](C)[C@H](NC)C(=O)O; NMeD = CN[C@@H](CC(=O)O)C(=O)O; NMeL = CN[C@@H](CC(C)C)C(=O)O; NMeV = CN[C@H](C(=O)O)C(C)C; d(β3hA) = C[C@@H](N)CC(=O)O; NMeS = CN[C@@H](CO)C(=O)O; Morpholide = C1CN(*)CCO1; NMeA = CN[C@@H](C)C(=O)O; Piperidide = C1CCN(*)CC1; Ac5c = NC1(C(=O)O)CCCC1; Aze = O=C(O)[C@@H]1CCN1; Sar = CNCC(=O)O; Propyl = CCC*
Answer shape: numeric part, then the unit.

compound	IC50
CC[C@H](C)[C@@H]1NC(=O)[C@H](CC(C)C)N(C)C(=O)C[C@@H](C(=O)N(C)C)N(C)C(=O)[C@H]([C@@H](C)CC)N(C)C(=O)C2(CCCC2)NC(=O)[C@H](CCc2cccnc2)N(C)C(=O)[C@H](CCc2ccc(C(F)(F)F)c(Cl)c2)NC(=O)CN(C)C(=O)[C@H](Cc2ccc(C)cc2)N(C)C(=O)[C@@H]2CCN2C(=O)[C@H](C)N(C)C1=O [Compound 1886] ([NMeL]I[NMeA][Aze][NMePhe(4-Me)][Sar][hPhe(3-Cl-4-CF3)][X11][Ac5c][NMeI][NMeD]-NMe2; lactam N-11)	0.93 nM

Prompt: Recorded IC50 for CCCOC[C@H]1C(=O)N(C)CC(=O)N[C@@H](CCc2ccc(C(F)(F)F)c(F)c2)C(=O)N2CCC[C@H]2C(=O)NC2(CCCC2)C(=O)N(C)[C@@H](C2CCCC2)C(=O)N(C)[C@H](C(=O)N2CCOCC2)CC(=O)N(C)[C@@H](CC(C)C)C(=O)N[C@@H]([C@@H](C)CC)C(=O)N(C)[C@@H](C)C(=O)N2CC[C@H]2C(=O)N1C [Compound 9] ([NMeL]I[NMeA][Aze][NMeS](Propyl)[Sar][hPhe(3-F,4-CF3)]P[Ac5c][NMeGly(cPent)][NMeD]-Morpholide; lactam N-11) , please?
Response: 1.5 nM

Prompt: Could you do the same for CC[C@H](C)[C@@H]1NC(=O)[C@H](C)N(C)C(=O)C[C@@H](C)NC(=O)[C@H](C(C)C)N(C)C(=O)[C@H](Cc2ccccc2)N(C)C(=O)[C@H](CC(C)C)N(C)C(=O)[C@H](CCc2ccc(C(F)(F)F)c(Cl)c2)NC(=O)CN(C)C(=O)[C@H](Cc2ccc(Cl)cc2)N(C)C(=O)[C@@H]2CCN2C(=O)CN(C)C1=O [Compound 994] (cyclo([Aze][NMePhe(4-Cl)][Sar][hPhe(3-Cl-4-CF3)][NMeL][NMeF][NMeV][d(β3hA)][NMeA]I[Sar])) , please?
Response: 11 nM

Prompt: Could you do the same for CC[C@H](C)[C@@H]1NC(=O)[C@H](CC(C)C)N(C)C(=O)C[C@@H](C(=O)N2CCCCC2)N(C)C(=O)[C@H](C2CCCCC2)N(C)C(=O)C2(CCCC2)NC(=O)[C@H](Cc2ccc(C(F)(F)F)nc2)N(C)C(=O)[C@H](CCc2ccc(C(F)(F)F)c(Cl)c2)NC(=O)CN(C)C(=O)[C@H](CC2CCCCC2)N(C)C(=O)[C@@H]2CCN2C(=O)CN(C)C1=O [Compound 6] ([NMeL]I[Sar][Aze][NMeCha][Sar][hPhe(3-Cl-4-CF3)][X12][Ac5c][NMeChg][NMeD]-Piperidide; lactam N-11) , please?
Response: 13 nM
